- experimentalSystem: Protein kinase C beta type (Homo sapiens);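 also: measured against the PKC-beta2 splice variant, with values reported as mean percent inhibition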
- conditionSummary: at 0.1 µM
- Description: GSK_PKIS: PKC-beta2 (splice variant) mean inhibition at 0.1 uM [Nanosyn]
Listing of entries alongside the reported inhibition.
Quick reminder: number only, in %, skip the unit.

The following compounds have reported results that may help.
{"structureSmilesString": "Cc1nnc(-c2ccc(C)c(-c3ccc(C(=O)NCc4ccc(Cl)cc4)cc3)c2)o1", "inhibition [%]": 1.36}
{"structureSmilesString": "CN1CCN(CCCNc2nc3ccc(Oc4ccc(NC(=O)Nc5cc(C(F)(F)F)ccc5F)cc4)cc3[nH]2)CC1", "inhibition [%]": 2.09}

Assay Protein kinase C beta type (Homo sapiens), sample `COc1ccc(-c2ccc3c(NC(=O)C4CC4)n[nH]c3n2)cc1` , inhibition read: 0.8

The reported Protein kinase C beta type (Homo sapiens) inhibition of `CCc1ccc(Oc2nccc(-c3c(-c4ccc(F)cc4)ncn3C3CCNCC3)n2)cc1` is 2.37

Noted inhibition for `Cc1ccc(C(=O)NC2CCC2)cc1-c1ccc(C(=O)NCC2CC2)cc1` , tested on Protein kinase C beta type (Homo sapiens): 0.24

Summary line: `NCc1ccc(-n2c(-c3nonc3N)nc3cnccc32)cc1` , Protein kinase C beta type (Homo sapiens), reported inhibition = 7.63

# value of inhibition, Protein kinase C beta type (Homo sapiens), item `Fc1ccc(-c2ncn(CCCN3CCOCC3)c2-c2ccncc2)cc1` = 0.1

Summary: `O=C(Nc1n[nH]c2cc(-c3cc(F)ccc3F)ccc12)C1CC1` , Protein kinase C beta type (Homo sapiens), inhibition = 1.71

Item `O=C(Nc1ccc(Oc2ccc3[nH]c(NC(=O)c4ccccc4)nc3c2)cc1)Nc1cc(C(F)(F)F)ccc1F` was tested on Protein kinase C beta type (Homo sapiens); the reported inhibition is 1.51

Sample `CN(C)c1ccc2c(c1)/C(=C/Nc1ccc(S(N)(=O)=O)cc1)C(=O)N2` , system: Protein kinase C beta type (Homo sapiens). Its inhibition is 1.61
